Test: protein stability index of a GFP-peptide fusion (GPS, HEK-293T) (PSI 1-6); higher = more stable;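 also: 24-mer peptide tiles fused after GFP, lentivirally expressed, FACS-sorted into six equal bins by GFP/DsRed ratio, decoded by Illumina sequencing, PSI is the read-weighted mean bin number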
Conditions: treatment: DMSO; c terminus: a fixed tail appended
Readout Label: protein stability index
Kindly provide the number alone.

Before answering, review these 3 worked examples.
{"Macromolecule Sequence": "RKAALEQDLAFWYGPRWQEVIPYT [HMOX1]", "Endpoint Result": 2.33}
{"Macromolecule Sequence": "GLALGGGLELALACDIRVAASSAK [AUH]", "Endpoint Result": 2.67}
{"Macromolecule Sequence": "QGRKIAEVCCTSIVYATEKKQTKV [KCTD13]", "Endpoint Result": 3.39}

# input for lookup
The sequence identified as FRNIKQEPFSARVLVLCVFNSILP [SOAT1] registered its protein stability index at 2.9

These entries and their values trace back to the supplement of paper PMC10567573.
